Each recorded value in this set is attributed to a melting point compilation (Tetko et al.; mined from patent text by program, amines drawn as free bases though some values may be those of a salt).

experimental_readout: melting point

Tell me measured melting point for CNn1c(C)nn(C(=O)NC(C)(C)C)c1=O please. 150 °C

Tell me measured melting point for O=C(NC(Cc1ccccc1)c1ccc(O)cc1)C(c1ccccc1)c1ccccc1 (stereo not given) please. 67 to 69 °C

Tell me measured melting point for CC1C(=O)Nc2c(Oc3ccccc3Cl)cccc21 (stereo not given) please. 138 to 139 °C

Tell me measured melting point for CC(C)(C)C(=O)OCCCCCCOc1ccc(Nc2ccccc2)cc1 please. 64 to 65 °C

Tell me measured melting point for O=C(C1=NN(CC(F)(F)F)C(=O)CN1)c1ccccc1 please. 142 to 145 °C

Tell me measured melting point for COC(=O)C(CCn1c(Cl)ccc1C(=O)c1ccc(Cl)cc1)C(=O)OC please. 72.5 to 73.5 °C

Tell me measured melting point for CC(C)(C)CCC/C(=C\c1ccc(C(=O)O)cc1)Cn1ccnc1 please. 190 to 192 °C

Tell me measured melting point for O=C(Cl)c1ccc2cc(C(=O)Cl)ccc2c1 please. 186 °C

Tell me measured melting point for CC(=O)NCCC1CCNCC1 please. 60 °C

Tell me measured melting point for ClCCOc1ccc(Br)cc1 please. 54 to 56 °C

Tell me measured melting point for Cc1c(C(=O)Nc2ccc(-c3ccc(S(=O)(=O)N(C)C(C(=O)O)C(C)C)cc3)cc2)oc2cccc(C(O)CO)c12 (stereo not given) please. 222 to 225 °C

Tell me measured melting point for CC(C)(C)OC(=O)C1C(C=CC(=O)O)C1(C)C (stereo not given) please. 94 °C

Tell me measured melting point for Cc1[nH]c(C=O)c(C)c1CCC(=O)O please. 145 to 147 °C

Tell me measured melting point for CCS(=O)(=O)N[C@H]1CC[C@H](CCN2CCC(c3cccc4c3CCO4)CC2)CC1 please. 131 °C

Tell me measured melting point for CCCCCS(=O)(=O)NC(=O)/C=C/c1ccc(OCCOC)cc1OCC1CCCCC1 please. 97.5 to 98.3 °C
